Target: PLK1 (Homo sapiens)
Assay: PLK TR-FRET peptide assay, PLK1
Format: biochemical
Conditions: GST-PLK1, 60 min reaction
pIC50: −log10 of the molar value.
# pIC50 per entry
measured-property: pIC50

INSERT INTO assay_data (molecule, experimental_system, result) VALUES
  ('CC[C@@H]1C(=O)N(C)c2cnc(-n3cnc(-c4ccccc4)c3)nc2N1C1CCCC1 [Example 36]', 'PLK1 (Homo sapiens)', '> 6.00'),
  ('CC[C@@H]1C(=O)N(C)c2cnc(-c3ccncc3CNC(=O)OC)nc2N1C1CCCC1 [Example 121]', 'PLK1 (Homo sapiens)', '4.30 to 5.00'),
  ('CC[C@@H]1C(=O)N(C)c2cnc(-n3cnc4ccccc43)nc2N1C1CCCC1 [Example 4]', 'PLK1 (Homo sapiens)', '> 6.00'),
  ('CC[C@@H]1C(=O)N(C)c2cnc(-c3ccncc3N)nc2N1C1CCCC1 [Example 91]', 'PLK1 (Homo sapiens)', '> 6.00'),
  ('CC[C@@H]1C(=O)N(C)c2cnc(-c3ccncc3CNC(=O)OC(C)(C)C)nc2N1C(C)C [Example 107]', 'PLK1 (Homo sapiens)', '< 4.30'),
  ('CN1C(=O)[C@H]2CCCCN2c2nc(-n3ccnc3)ncc21 [Example 24]', 'PLK1 (Homo sapiens)', '< 4.30'),
  ('CN1C(=O)[C@H]2CCCN2c2nc(-n3ccnc3)ncc21 [Example 33]', 'PLK1 (Homo sapiens)', '< 4.30'),
  ('CC[C@@H]1C(=O)N(C)c2cnc(-c3ccccc3C(F)(F)F)nc2N1C1CCC1 [Example 98]', 'PLK1 (Homo sapiens)', '4.30 to 5.00'),
  ('CC[C@@H]1C(=O)N(C)c2cnc(-c3ccncc3)nc2N1C(C)C [Example 23]', 'PLK1 (Homo sapiens)', '5.00 to 6.00'),
  ('[2H]C([2H])([2H])N1C(=O)C(C([2H])([2H])C([2H])([2H])[2H])N(C([2H])(C([2H])([2H])[2H])C([2H])([2H])[2H])c2nc(-n3ccnc3-c3ccc(F)c(F)c3)ncc21 (stereo not shown) [Example 169]', 'PLK1 (Homo sapiens)', '5.00 to 6.00'),
  ('CC[C@@H]1C(=O)N(C)c2cnc(-c3ccncc3-c3ccccc3)nc2N1C1CCC1 [Example 96]', 'PLK1 (Homo sapiens)', '> 6.00'),
  ('CC[C@@H]1C(=O)N(C)c2cnc(-n3ncnc3-c3ccccc3)nc2N1C1CCC1 [Example 208]', 'PLK1 (Homo sapiens)', '> 6.00'),
  ('CC[C@@H]1C(=O)N(C)c2cnc(-n3ccnc3C(F)(F)F)nc2N1C1CCCC1 [Example 352]', 'PLK1 (Homo sapiens)', '5.00 to 6.00'),
  ('CC[C@@H]1C(=O)N(C)c2cnc(-n3ccnc3C3CCOCC3)nc2N1C1CCCC1 [Example 90]', 'PLK1 (Homo sapiens)', '5.00 to 6.00'),
  ('CC[C@@H]1C(=O)N(C)c2cnc(-c3cnoc3-c3ccc(F)cc3)nc2N1C(C)C [Example 173]', 'PLK1 (Homo sapiens)', '5.00 to 6.00'),
  ('CC[C@@H]1C(=O)N(C)c2cnc(-n3ccnc3-n3ccccc3=O)nc2N1C1CCCC1 [Example 113]', 'PLK1 (Homo sapiens)', '5.00 to 6.00');

====

Below: a set of entries, each annotated with reported IC50.
Molecular target: PLK3 (Homo sapiens, UniProt Q9H4B4)
Sequence (Q9H4B4 whole entry): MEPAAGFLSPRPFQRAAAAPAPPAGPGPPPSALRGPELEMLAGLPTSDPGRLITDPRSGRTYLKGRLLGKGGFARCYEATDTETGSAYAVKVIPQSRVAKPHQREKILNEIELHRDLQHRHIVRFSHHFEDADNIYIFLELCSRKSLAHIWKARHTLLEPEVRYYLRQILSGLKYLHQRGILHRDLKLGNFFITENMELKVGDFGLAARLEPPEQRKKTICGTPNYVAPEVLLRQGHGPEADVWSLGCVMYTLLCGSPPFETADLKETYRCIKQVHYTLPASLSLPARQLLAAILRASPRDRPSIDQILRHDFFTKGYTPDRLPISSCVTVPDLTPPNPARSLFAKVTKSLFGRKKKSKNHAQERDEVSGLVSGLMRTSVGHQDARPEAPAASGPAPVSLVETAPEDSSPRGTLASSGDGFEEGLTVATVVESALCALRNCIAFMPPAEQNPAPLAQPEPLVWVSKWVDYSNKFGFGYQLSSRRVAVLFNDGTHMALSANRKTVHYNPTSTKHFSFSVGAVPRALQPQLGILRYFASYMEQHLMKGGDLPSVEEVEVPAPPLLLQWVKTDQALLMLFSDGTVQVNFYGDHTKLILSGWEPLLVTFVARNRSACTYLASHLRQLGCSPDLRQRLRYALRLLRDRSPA
Assay: PLK TR-FRET peptide assay, PLK3
Assay type: biochemical
Conditions: GST-PLK3, 15 min reaction, read-out: Plk3 IC50
measured-property: IC50

INSERT INTO results (compound, experimental_system, measured_property, result) VALUES
  ('CC[C@@H]1C(=O)N(C)c2cnc(-n3ccnc3-c3cc(Cl)cc(Cl)c3)nc2N1C1CCC1', 'PLK3 (Homo sapiens, UniProt Q9H4B4)', 'IC50', '1 to 10 µM'),
  ('CC[C@@H]1C(=O)N(C)c2cnc(-n3ccnc3-c3ccc(C#N)cc3)nc2N1C(C)C', 'PLK3 (Homo sapiens, UniProt Q9H4B4)', 'IC50', '10 to 50 µM'),
  ('CC[C@@H]1C(=O)N(C)c2cnc(-c3ccncc3NC(C)=O)nc2N1C1CCCC1', 'PLK3 (Homo sapiens, UniProt Q9H4B4)', 'IC50', '10 to 50 µM'),
  ('CC[C@@H]1CC[C@@]2(CC)C(=O)N(C)c3cnc(-n4ccnc4)nc3N12', 'PLK3 (Homo sapiens, UniProt Q9H4B4)', 'IC50', '10 to 50 µM'),
  ('CC[C@@H]1C(=O)N(C)c2cnc(-n3ccnc3C3CC3)nc2N1C1CCCC1', 'PLK3 (Homo sapiens, UniProt Q9H4B4)', 'IC50', '1 to 10 µM'),
  ('CC[C@@H]1C(=O)N(C)c2cnc(-c3ccncc3NC(=O)OC(C)(C)C)nc2N1C1CCCC1', 'PLK3 (Homo sapiens, UniProt Q9H4B4)', 'IC50', '> 50 µM'),
  ('CC[C@@]12CCCN1c1nc(-n3ccnc3-c3cccc(-c4cccnc4)c3)ncc1N(C)C2=O', 'PLK3 (Homo sapiens, UniProt Q9H4B4)', 'IC50', '10 to 50 µM'),
  ('CCC1C(=O)N(C)c2cnc(-n3ccnc3)nc2N1c1ccccc1 (stereo not shown)', 'PLK3 (Homo sapiens, UniProt Q9H4B4)', 'IC50', '> 50 µM'),
  ('CC[C@@H]1C(=O)N(C)c2cnc(-c3sc(C#N)nc3-c3ccc(F)cc3)nc2N1C(C)C', 'PLK3 (Homo sapiens, UniProt Q9H4B4)', 'IC50', '< 1 µM'),
  ('CC[C@@H]1C(=O)N(C)c2cnc(-n3ccnc3-c3ccc(F)c(F)c3)nc2N1C1COC1', 'PLK3 (Homo sapiens, UniProt Q9H4B4)', 'IC50', '> 50 µM'),
  ('CC[C@@]12CCCCN1c1nc(-n3ccnc3-c3cccc(F)c3F)ncc1N(C)C2=O', 'PLK3 (Homo sapiens, UniProt Q9H4B4)', 'IC50', '1 to 10 µM'),
  ('CC[C@@H]1C(=O)N(C)c2cnc(-c3ccncc3NC(=O)c3ccccc3)nc2N1C(C)C', 'PLK3 (Homo sapiens, UniProt Q9H4B4)', 'IC50', '1 to 10 µM'),
  ('CC[C@@H]1C(=O)N(C)c2cnc(-c3cn[nH]c3-c3nccs3)nc2N1C(C)C1CC1 (stereo partly shown)', 'PLK3 (Homo sapiens, UniProt Q9H4B4)', 'IC50', '1 to 10 µM');

====

Molecular target: PLK1 (Homo sapiens, UniProt P53350)
Sequence (P53350 whole entry): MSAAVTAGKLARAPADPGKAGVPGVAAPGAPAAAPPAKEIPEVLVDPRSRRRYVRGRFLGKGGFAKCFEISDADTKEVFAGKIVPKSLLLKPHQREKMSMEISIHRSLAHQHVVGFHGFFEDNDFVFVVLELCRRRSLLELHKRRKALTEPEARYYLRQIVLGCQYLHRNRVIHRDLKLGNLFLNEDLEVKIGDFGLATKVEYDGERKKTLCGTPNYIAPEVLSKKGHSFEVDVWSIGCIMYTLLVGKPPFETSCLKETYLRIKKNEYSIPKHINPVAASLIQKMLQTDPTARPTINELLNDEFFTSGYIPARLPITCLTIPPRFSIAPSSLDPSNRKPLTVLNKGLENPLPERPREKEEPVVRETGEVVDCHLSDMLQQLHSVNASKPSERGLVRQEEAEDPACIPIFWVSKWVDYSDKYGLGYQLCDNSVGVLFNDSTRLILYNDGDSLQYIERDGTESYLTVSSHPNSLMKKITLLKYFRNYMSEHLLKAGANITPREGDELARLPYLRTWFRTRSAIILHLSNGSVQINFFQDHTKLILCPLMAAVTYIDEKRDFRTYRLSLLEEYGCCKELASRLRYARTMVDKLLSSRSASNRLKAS
Assay: PLK TR-FRET peptide assay, PLK1
Format: biochemical
Settings: GST-PLK1, 60 min reaction
measured-property: IC50

INSERT INTO measurements (compound, experimental_system, result) VALUES
  ('CC[C@@H]1C(=O)N(C)c2cnc(-c3ccncc3CNS(C)(=O)=O)nc2N1C1CCCC1 [Example 124]', 'PLK1 (Homo sapiens, UniProt P53350)', '1 to 10 µM'),
  ('CC[C@@]12CCCCN1c1nc(-n3ccnc3-c3cccc(F)c3)ncc1N(C)C2=O [Example 264]', 'PLK1 (Homo sapiens, UniProt P53350)', '1 to 10 µM'),
  ('CC[C@@H]1C(=O)N(C)c2cnc(-n3ccnc3-c3nccc4ccccc34)nc2N1C(C)C [Example 196]', 'PLK1 (Homo sapiens, UniProt P53350)', '10 to 50 µM'),
  ('CC[C@@H]1C(=O)N(C)c2cnc(-c3ccncc3CNC(=O)OC)nc2N1C(C)C [Example 128]', 'PLK1 (Homo sapiens, UniProt P53350)', '10 to 50 µM'),
  ('CC[C@@H]1C(=O)N(C)c2cnc(-n3cc[n+](C)c3C)nc2N1C1CCCC1 [Example 28]', 'PLK1 (Homo sapiens, UniProt P53350)', '> 50 µM'),
  ('CC[C@@H]1C(=O)N(C)c2cnc(-c3ccncc3N)nc2N1C(C)C [Example 93]', 'PLK1 (Homo sapiens, UniProt P53350)', '1 to 10 µM'),
  ('CCC12CCCCN1c1nc(-n3ccnc3-c3cccc(F)c3)ncc1N(C)C2=O (racemic) [Example 239]', 'PLK1 (Homo sapiens, UniProt P53350)', '1 to 10 µM'),
  ('CC[C@@H]1C(=O)N(C)c2cnc(-c3nccnc3-c3ccc(C(F)(F)F)cc3)nc2N1C(C)C [Example 175]', 'PLK1 (Homo sapiens, UniProt P53350)', '1 to 10 µM'),
  ('CC[C@@]12CCCCN1c1nc(-n3ccnc3-c3cccc(F)c3F)ncc1N(C)C2=O [Example 259]', 'PLK1 (Homo sapiens, UniProt P53350)', '1 to 10 µM'),
  ('CC[C@@H]1C(=O)N(C)c2cnc(-n3ccnc3-c3cncc(F)c3)nc2N1C1CCCC1 [Example 99]', 'PLK1 (Homo sapiens, UniProt P53350)', '< 1 µM'),
  ('CC[C@@H]1C(=O)Nc2cnc(-n3cccn3)nc2N1C1CCCC1 [Example 29]', 'PLK1 (Homo sapiens, UniProt P53350)', '> 50 µM'),
  ('CC[C@@H]1C(=O)N(C)c2cnc(-n3ccnc3-c3ccncc3)nc2N1C(C)C [Example 150]', 'PLK1 (Homo sapiens, UniProt P53350)', '10 to 50 µM'),
  ('CCC12CCCCN1c1nc(-n3ccnc3)ncc1N(C)C2=O (racemic) [Example 283]', 'PLK1 (Homo sapiens, UniProt P53350)', '> 50 µM'),
  ('CC[C@@H]1C(=O)N(C)c2cnc(-c3ccncc3NC(=O)OC)nc2N1C1CCCC1 [Example 114]', 'PLK1 (Homo sapiens, UniProt P53350)', '1 to 10 µM'),
  ('CC[C@@H]1C(=O)N(C)c2cnc(-c3cn[nH]c3-c3nccs3)nc2N1C1CC(F)(F)C1 [Example 353]', 'PLK1 (Homo sapiens, UniProt P53350)', '1 to 10 µM'),
  ('[2H]C([2H])([2H])N1C(=O)C(C([2H])([2H])C([2H])([2H])[2H])N(C([2H])(C([2H])([2H])[2H])C([2H])([2H])[2H])c2nc(-n3ccnc3-c3cccc(C(F)(F)F)c3)ncc21 (centres unmarked) [Example 172]', 'PLK1 (Homo sapiens, UniProt P53350)', '1 to 10 µM'),
  ('CC[C@@H]1C(=O)N(C)c2cnc(-c3ccncc3CN)nc2N1C1CCCC1 [Example 105]', 'PLK1 (Homo sapiens, UniProt P53350)', '10 to 50 µM'),
  ('CC[C@@H]1C(=O)N(C)c2cnc(-c3ccncc3NC(=O)OC(C)(C)C)nc2N1C(C)C [Example 94]', 'PLK1 (Homo sapiens, UniProt P53350)', '10 to 50 µM'),
  ('CC[C@@]12CCCN1c1nc(-n3ccnc3-c3ccc(F)c(Cl)c3)ncc1N(C)C2=O [Example 213]', 'PLK1 (Homo sapiens, UniProt P53350)', '10 to 50 µM'),
  ('CC[C@@H]1CC[C@@]2(CC)C(=O)N(C)c3cnc(-c4cn[nH]c4-c4cscn4)nc3N12 [Example 356]', 'PLK1 (Homo sapiens, UniProt P53350)', '1 to 10 µM');
